Heads up, these compounds all have IC50 values measured for PD-L1 (Homo sapiens).
Form entry: value (µM) — number only.

Cc1c(COc2ccc(CN3CCNCC3)c(OCc3cn(-c4cccc(C#N)c4)nn3)c2)cccc1-c1ccccc1 | 8.52

Lookup: I'm curious: which IC50 was measured for `Cc1c(COc2ccc(CN3CCN(C)CC3)c(OCc3cn(-c4cccc(C#N)c4)nn3)c2)cccc1-c1ccccc1` tested on PD-L1 (Homo sapiens)?
Found: 14.1
